MEASUREMENT_PROTOCOL: Antioxidant activity assessed as DPPH radical scavenging activity at 10^-3 M incubated for 30 mins by spectrophotometry
Assay type: physicochemical
RECORDED_CONDITIONS: 0.5 h, 1000 µM
In this section we review reported inhibition (INH) values for a set of molecules.

MOLECULE: COc1ccc(-c2cc(-c3cccn3C)c(C#N)c(N)n2)cc1OC
READOUT_UNIT: %
inhibition (INH): 33
//
MOLECULE: CC1CCCc2c1nc(N)c(C#N)c2-c1cccn1C (stereo not given)
READOUT_UNIT: %
inhibition (INH): 16
//
MOLECULE: Cc1cc(C(C)(C)C)c(O)c(C(C)(C)C)c1 [BUTYLATED HYDROXYTOLUENE]
READOUT_UNIT: %
inhibition (INH): 36
//
MOLECULE: CC1CCCc2c1nc(NC(=S)NC(=O)c1ccccc1)c(C#N)c2-c1cccn1C (stereo not given)
READOUT_UNIT: %
inhibition (INH): 23
//
MOLECULE: COc1ccc(-c2cc(-c3cccn3C)c(C#N)c(=O)[nH]2)cc1OC
READOUT_UNIT: %
inhibition (INH): 31
